Below, each entry is listed alongside its reported IC50.
Tested on: other cell lines (MCF-7, A549, PC-3, SKOV-3, A431)
Method Notes: MTT cytotoxicity test, other cell lines of the panel
Format: cell-based
Conditions: range over the cell lines other than L929 and KB3.1 (Table 6)
Endpoint: IC50

Compound	System	Test Value
CC(C)C1=C2[C@H]3CC=C(C=O)[C@@H]4[C@H](O[C@@H]5OC[C@@H](O)C(=O)[C@@]54O)[C@]3(C)CC[C@@]2(C)CC1	other cell lines (MCF-7, A549, PC-3, SKOV-3, A431)	100 to 1000 nM
CC(C)C1=C2C3CC=C4C5OC6C(O)(COC7OC(C4C76O)C3(C)CCC2(C)CC1)O5 (centres unmarked)	other cell lines (MCF-7, A549, PC-3, SKOV-3, A431)	700 to 15800 nM

Ref: paper PMC9405216
